Each entry below carries its reported pest or weed control at 250 g/ha.
# Test system: Lolium perenne (LOLPE)
# Assay Method Text: Test Example 1 pre-emergence herbicidal activity
# Assay type: in vivo
# Conditions Used: Lolium perenne, 480 h, rate 250 g/ha, evaluated 20 days later, read-out: Pre-emergence activity LOLPE (100=total damage to plant; 0=no damage to plant)
Expressed in %, but write only the number.

Please review the entries below; each comes with its answer.
CCOC(=O)C1=NOC2C1[C@@H]1O[C@H]2[C@H]2C(O)=C(c3c(CC)cc(C)cc3CC)C(=O)[C@H]21 (mixture of isomers)	0
CCCNC(=O)OC[C@]12CC[C@H](O1)[C@@H]1C(=O)C(c3c(CC)cc(C)cc3CC)=C(O)[C@@H]12	80
CCc1cc(C)cc(CC)c1C1=C(OC(=O)C2CC2)[C@H]2[C@@H](C1=O)[C@@H]1CC[C@H]2O1 (racemic)	100

Recorded pest or weed control at 250 g/ha (molecule `CCc1cc(C)cc(CC)c1C1=C(O)[C@@H]2[C@@H]3O[C@@H](C[C@H]3c3cccc(C(F)(F)F)c3)[C@@H]2C1=O` ): 80

Recorded pest or weed control at 250 g/ha (molecule `CCc1cc(C)cc(CC)c1C1=C(O)[C@@H]2[C@@H]3O[C@@H](C[C@H]3c3cccc(Cl)c3)[C@@H]2C1=O` ): 70

Recorded pest or weed control at 250 g/ha (molecule CCc1cc(C)cc(CC)c1C1=C(O)[C@@H]2[C@@H]3O[C@@H](C[C@H]3c3ccc(F)c(F)c3)[C@@H]2C1=O (racemic) ): 80

Recorded pest or weed control at 250 g/ha (molecule CCc1cc(C)cc(CC)c1C1=C(O)[C@@H]2[C@@H]3O[C@@H](C[C@H]3c3ccc(Cl)cc3C)[C@@H]2C1=O (racemic) ): 80

Recorded pest or weed control at 250 g/ha (molecule `Cc1cc(C)c(C2=C(O)[C@@H]3[C@@H]4O[C@@H](C[C@H]4c4cnc5ccccc5n4)[C@@H]3C2=O)c(C)c1` ): 50

Recorded pest or weed control at 250 g/ha (molecule CCc1cc(C)cc(CC)c1C1=C(O)[C@@H]2[C@@H]3O[C@@H](C[C@H]3c3ccc(OC(F)(F)F)cc3)[C@@H]2C1=O (racemic) ): 40

Recorded pest or weed control at 250 g/ha (molecule `CCc1cc(C)cc(CC)c1C1=C(O)[C@H]2[C@@H](C1=O)[C@@H]1C=C[C@H]2O1` ): 100

Recorded pest or weed control at 250 g/ha (molecule Cc1cc(C)c(C2=C(O)[C@@H]3[C@@H]4O[C@@H](C[C@H]4c4cc(C(F)(F)F)nc(C(F)(F)F)c4)[C@@H]3C2=O)c(C)c1 (racemic) ): 60

Recorded pest or weed control at 250 g/ha (molecule `Cc1cc(C)c(C2=C(O)[C@@H]3[C@@H]4O[C@@H](C[C@H]4c4cccc(C#N)c4)[C@@H]3C2=O)c(C)c1` ): 40

Recorded pest or weed control at 250 g/ha (molecule CCc1cc(C)cc(CC)c1C1=C(O)[C@@H]2[C@@H]3O[C@@H](C[C@H]3c3cc([N+](=O)[O-])ccc3C)[C@@H]2C1=O (racemic) ): 70

---

# System: Alopecurus myosuroides (ALOMY)
# Assay Method Text: Test Example 1 post-emergence herbicidal activity
# Type: in vivo
# Conditions Used: 360 h, rate 125 g/ha, evaluated 15 days later, read-out: Post-emergence activity ALOMY (100=total damage to plant; 0=no damage to plant)
Each entry below carries its reported pest or weed control at 125 g/ha.
Expressed in %, but write only the number.

Please review the entries below; each comes with its answer.
CCc1cc(C)cc(CC)c1C1=C(O)[C@@H]2[C@@H]3O[C@@H](C[C@H]3c3cc(F)ccc3C)[C@@H]2C1=O [Example T147]	90
CCc1cc(C)cc(CC)c1C1=C(OC(=O)CC(C)C)[C@H]2[C@@H](C1=O)[C@@H]1CC[C@H]2O1 [Example P19]	100
Cc1cc(C)c(C2=C(O)[C@@H]3[C@@H]4O[C@@H](C[C@@H]4C)[C@@H]3C2=O)c(C)c1 [Example T97]	90

Alopecurus myosuroides (ALOMY) assay, compound CCc1cc(C)cc(CC)c1C1=C(O)[C@@H]2[C@@H]3O[C@@H](C[C@H]3c3ccc(C#N)cc3)[C@@H]2C1=O [Example T160] , recorded pest or weed control at 125 g/ha = 90

Alopecurus myosuroides (ALOMY) assay, compound CCc1cc(C)cc(CC)c1C1=C(O)[C@@H]2[C@@H]3O[C@@H](C[C@H]3c3ccc(C)c(Cl)c3)[C@@H]2C1=O [Example T151] , recorded pest or weed control at 125 g/ha = 80

Alopecurus myosuroides (ALOMY) assay, compound COC[C@]12CC[C@H](O1)[C@@H]1C(=O)C(c3c(C)cc(C)cc3C)=C(OC(=O)C3CC3)[C@@H]12 (single isomer, unassigned) [Example P30] , recorded pest or weed control at 125 g/ha = 80
